src = ChEMBL document CHEMBL1133331

Item-by-item account of IC50
system: Coagulation factor X (Homo sapiens)
Sequence (P00742 41-179 limits assumed): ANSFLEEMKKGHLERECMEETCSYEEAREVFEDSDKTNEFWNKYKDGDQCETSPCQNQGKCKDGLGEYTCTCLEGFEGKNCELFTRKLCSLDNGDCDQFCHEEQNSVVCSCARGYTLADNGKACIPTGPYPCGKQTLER
Sequence (P00742 235-488 limits assumed): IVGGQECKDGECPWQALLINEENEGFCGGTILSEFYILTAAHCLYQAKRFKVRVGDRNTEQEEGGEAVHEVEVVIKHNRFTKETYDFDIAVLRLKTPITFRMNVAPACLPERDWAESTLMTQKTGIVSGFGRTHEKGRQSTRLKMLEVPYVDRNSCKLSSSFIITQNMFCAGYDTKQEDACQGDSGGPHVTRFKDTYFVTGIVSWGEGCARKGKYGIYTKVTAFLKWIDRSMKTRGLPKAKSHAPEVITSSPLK
assay: In vitro inhibition of human Coagulation factor X.
Answer in nM, number only, no unit symbol.

Worked set:
molecule: N=C(N)NCCC[C@@H](NC(=O)OCc1ccccc1)C(=O)NCC(=O)N[C@H]1CCCN(C(=N)N)C1O (stereo in doubt; 1)
IC50, nM: 34.9

molecule: N=C(N)N1CCC(C[C@@H](NS(=O)(=O)Cc2ccccc2)C(=O)NCC(=O)N[C@H]2CCCN(C(=N)N)C2O)CC1 (some centres undefined)
IC50, nM: 0.83

# get_value(readout= IC50, system= Coagulation factor X (Homo sapiens)) for N=C(N)N1CCCC(C[C@@H](NS(=O)(=O)Cc2ccccc2)C(=O)NCC(=O)N[C@H]2CCCN(C(=N)N)C2O)C1 (stereo in doubt)
0.92

Repeat for the following molecule: COC(=O)c1ccccc1CS(=O)(=O)N[C@H](CC1CCCN(C(=N)N)C1)C(=O)NCC(=O)N[C@H]1CCCN(C(=N)N)C1O (stereo in doubt; form 1)
1.37

Would you kindly repeat that for N=C(N)N1CCC(C[C@@H](NS(=O)(=O)Cc2cccc(C(=O)O)c2)C(=O)NCC(=O)N[C@H]2CCCN(C(=N)N)C2O)CC1 (some centres undefined) ?
4.3

Check N=C(N)NCCC[C@@H](NS(=O)(=O)Cc1ccccc1)C(=O)NCC(=O)N[C@H]1CCCN(C(=N)N)C1O (some centres undefined) too.
0.9

What about this molecule? COC(=O)c1cccc(CS(=O)(=O)N[C@H](CC2CCN(C(=N)N)CC2)C(=O)NCC(=O)N[C@H]2CCCN(C(=N)N)C2O)c1 (some centres undefined)
2.2

What do we get for COC(=O)c1ccccc1CS(=O)(=O)N[C@H](CC1CCCN(C(=N)N)C1)C(=O)NCC(=O)N[C@H]1CCCN(C(=N)N)C1O (stereo in doubt; form 2) ?
1.08

Also N=C(N)N1CCCC(C[C@@H](NS(=O)(=O)Cc2ccccc2C(=O)O)C(=O)NCC(=O)N[C@H]2CCCN(C(=N)N)C2O)C1 (single isomer, unassigned) ?
2.1

// query: N=C(N)N1CCCC(C[C@@H](NS(=O)(=O)Cc2ccccc2)C(=O)NCC(=O)N[C@H]2CCCN(C(=N)N)C2O)C1 (single isomer, unassigned)
1.2

Same for COC(=O)c1ccccc1CS(=O)(=O)N[C@H](CC1CCN(C(=N)N)CC1)C(=O)NCC(=O)N[C@H]1CCCN(C(=N)N)C1O (some centres undefined)
0.94
